Exercise: for every item that follows, state its recorded Percent Effect.
# Tested on: Wolbachia pipientis
# Protocol Text: Anti-Wolbachia Cell-Based Screen
# Format: functional
# Design: scale not given: in the data most compounds retested in dose-response had high values
# Condition Info: 5 µM
Among all 48,000 compounds or so, about 13,000 (27%) showed an effect of 50% or more. The list shows a part of the results.
Give just the numeric value; % need not be written.

**Q:** Return Percent Effect for the following compound: COCc1nc(C(=O)N2CCCCC2Cn2cc(C)cn2)cs1 (configuration not stated)
**A:** 2.393

**Q:** Return Percent Effect for the following compound: CCN1CCn2c(C)cnc2C12CCN(C(=O)C(C)C)CC2.O=C(O)C(F)(F)F.O=C(O)C(F)(F)F
**A:** 108.7

**Q:** Return Percent Effect for the following compound: Cc1ccc(-c2cc(C(=O)N(C)Cc3noc4c3CCCC4)[nH]n2)o1
**A:** 119

**Q:** Return Percent Effect for the following compound: COCCn1ccc2c(C(=O)Nc3nc4c(s3)CCC4)cccc21
**A:** 149.9

**Q:** Return Percent Effect for the following compound: Cc1noc(NCc2cc(F)ccc2F)n1
**A:** 5.671

**Q:** Return Percent Effect for the following compound: Cc1cccc(CN2CC3(CCNCC3)OCC2=O)n1
**A:** -5.931

**Q:** Return Percent Effect for the following compound: CC(C)CN1CC(C(=O)N(C)CCc2cn[nH]c2)CC1=O (configuration not stated)
**A:** -9.129

**Q:** Return Percent Effect for the following compound: Cc1cccc(CN2CCC3(CCCN(C(=O)CN(C)C)C3)C2=O)n1 (configuration not stated)
**A:** 1.32

**Q:** Return Percent Effect for the following compound: Cc1cnn(CC2CCCCN2C(=O)c2ccc(C#N)c(C)n2)c1 (configuration not stated)
**A:** 2.901

**Q:** Return Percent Effect for the following compound: COCCc1noc(CN(C)c2cc(C)ncn2)n1
**A:** -9.011

**Q:** Return Percent Effect for the following compound: COc1ncccc1C(=O)Nc1nc2c(s1)CN(S(=O)(=O)C1CC1)CC2
**A:** -5.987

**Q:** Return Percent Effect for the following compound: COCCn1cc(C(=O)N2CCCC2c2ccncc2)c2ccccc21 (configuration not stated)
**A:** 12.21

**Q:** Return Percent Effect for the following compound: Cc1ccc(-c2cc(C(=O)N(C)Cc3noc4c3CCCC4)[nH]n2)s1
**A:** 126

**Q:** Return Percent Effect for the following compound: CN(C)S(=O)(=O)NCc1cccnc1Oc1ccc(F)cc1F
**A:** 1.253

**Q:** Return Percent Effect for the following compound: CC(C)CCn1cc(C(=O)NC2CCS(=O)(=O)C2)c2ccccc2c1=O (configuration not stated)
**A:** 143.5

**Q:** Return Percent Effect for the following compound: CSC1(CNc2ncc(Br)cn2)CCOCC1
**A:** -8.791

**Q:** Return Percent Effect for the following compound: COCCn1cc(CC(=O)Nc2nc3c(s2)CCC3)c2ccccc21
**A:** 108.7

**Q:** Return Percent Effect for the following compound: CC(C)n1c(C2CCCN(CC(=O)NC(N)=O)C2)nc2ccccc21 (configuration not stated)
**A:** -22.16

**Q:** Return Percent Effect for the following compound: CCCC(=O)N1CCC2(CC1)CN(Cc1cccc(C)n1)C(=O)CO2
**A:** 88.89

**Q:** Return Percent Effect for the following compound: CN(CC(=O)N1CCCC1Cn1cccn1)C1CC1 (configuration not stated)
**A:** -6.628

**Q:** Return Percent Effect for the following compound: O=C(CCCOc1ccccc1)N1CCCC1Cn1cccn1 (configuration not stated)
**A:** 116.1

**Q:** Return Percent Effect for the following compound: CC(C)Cc1noc(CN(C)C2CCCC2)n1
**A:** -3.332

**Q:** Return Percent Effect for the following compound: Cc1ccn(Cc2nc(CC(C)C)no2)c(=O)c1
**A:** -2.116

**Q:** Return Percent Effect for the following compound: CCN1CCn2c(C)cnc2C12CCN(C(=O)N(C)C)CC2.O=C(O)C(F)(F)F.O=C(O)C(F)(F)F
**A:** 107

**Q:** Return Percent Effect for the following compound: CN(Cc1noc2c1CCCC2)C(=O)C1Cc2ccccc2CN1C (configuration not stated)
**A:** 9.151

**Q:** Return Percent Effect for the following compound: CN(CC(=O)Nc1nc2c(s1)CCCCCC2)C(=O)c1ccco1
**A:** -14.29

**Q:** Return Percent Effect for the following compound: CNCc1cc(F)ccc1Oc1ccc(F)cc1F
**A:** 116

**Q:** Return Percent Effect for the following compound: Cc1cccc(OCCNC(=O)CN2CCCC2Cn2cccn2)c1 (configuration not stated)
**A:** -3.043

**Q:** Return Percent Effect for the following compound: CN(Cc1noc2c1CCCC2)C(=O)CN1C(=O)CSc2ccccc21
**A:** 0.5887

**Q:** Return Percent Effect for the following compound: O=C(C1=CCCC1)N1CCC[C@]2(C[C@@H](OCc3ccncc3)CO2)C1.O=C(O)C(F)(F)F
**A:** -18.3

**Q:** Return Percent Effect for the following compound: COCCN1CCC2(CC1)CN(CCn1cccn1)C(=O)CO2.O=C(O)C(F)(F)F
**A:** -17.67

**Q:** Return Percent Effect for the following compound: CCN1CCC2(CN(C(=O)N(C)C)CC23CCNCC3)C1=O.O=C(O)C(F)(F)F (configuration not stated)
**A:** -16.29

**Q:** Return Percent Effect for the following compound: Cc1cccc2nc(CN3CCC(Cn4ccnn4)CC3)cc(=O)n12
**A:** -3.748

**Q:** Return Percent Effect for the following compound: CC(C)CCN1CCc2[nH]nc(C(=O)N3CCCC3C)c2C1.O=C(O)C(F)(F)F (configuration not stated)
**A:** -10.1

**Q:** Return Percent Effect for the following compound: COC(C)c1noc(CN(C)c2ncccn2)n1 (configuration not stated)
**A:** -22.13

**Q:** Return Percent Effect for the following compound: COCC(=O)N1CCCC2(CCN(Cc3cccc(C)n3)C2=O)C1.O=C(O)C(F)(F)F (configuration not stated)
**A:** -15.33

**Q:** Return Percent Effect for the following compound: COc1cc(N(C)Cc2noc(CC(C)C)n2)ncn1
**A:** 117.3

**Q:** Return Percent Effect for the following compound: CNCc1cc(F)ccc1Oc1ccc(Cl)cc1
**A:** 118.2

**Q:** Return Percent Effect for the following compound: COc1cccc(CNC(=O)CN2CCCCC2Cn2cccn2)c1 (configuration not stated)
**A:** 0.3805

**Q:** Return Percent Effect for the following compound: Cc1nc(N2CCOCC2)nc(C)c1NC(=O)COc1ccccc1
**A:** 15.56

**Q:** Return Percent Effect for the following compound: CC(C)S(=O)(=O)NCC1CCCN(C(=O)c2ccc3c(c2)OCCO3)C1 (configuration not stated)
**A:** -10.13

**Q:** Return Percent Effect for the following compound: Cc1cnn(CC2CCCN2C(=O)c2csc(C3CC3)n2)c1 (configuration not stated)
**A:** 86.35

**Q:** Return Percent Effect for the following compound: CCN(Cc1noc(CC(C)C)n1)Cc1ccccc1C
**A:** 1.611

**Q:** Return Percent Effect for the following compound: COCCNC(=O)Nc1ccc(CN2CCOC2=O)cc1
**A:** -11.28

**Q:** Return Percent Effect for the following compound: Cc1cccc(CN2CC3(CCN(C(=O)C4CC4)CC3)OCC2=O)n1
**A:** 113.2

**Q:** Return Percent Effect for the following compound: CCc1cc(N(C)Cc2noc(CC(C)C)n2)ncn1
**A:** 121.1

**Q:** Return Percent Effect for the following compound: CC(C)Cc1noc(CN(C)c2ncccn2)n1
**A:** 119.3
